tested on: A498; test: Cytotoxicity against human A498 cells; assay type: functional
GI50 values, listed per item
Experimental Readout: GI50 (µM)

1) CC(=O)O[C@H]1C[C@H]2[C@@](C)(CC[C@H]3C(C)(C)CCC[C@@]32CO)[C@@H]2CC=C(C(C)=O)[C@H](C=O)[C@@]12C	1.48
2) CC(=O)O[C@@H]1C[C@H]2[C@]3(C)CC[C@H]4C(C)(C)CCC[C@]4(C)[C@H]3C[C@H](O)[C@]2(C)[C@@H](C=O)[C@@H]1C(C)=O [SCALARHERBACIN A]	1.82
3) CC1OC(=O)[C@H]2[C@H]1[C@@H](O)C[C@H]1[C@]3(C)CC[C@H]4C(C)(C)CCC[C@]4(C)[C@H]3C[C@@H](O)[C@]21C (some centres undefined)	18.6
4) CC(=O)C1=CC[C@H]2[C@]3(C)CC[C@H]4C(C)(C)CCC[C@]4(C(=O)O)[C@H]3CC(=O)[C@]2(C)[C@H]1C=O	1.12
